Molecular target: isolated recombinant JAK2 kinase domain (Homo sapiens (Human))
Assay: JAK2 enzyme assay (Caliper LabChip, Ki)
Entries whose Ki is below 7 nM take Satisfied; entries at or above 7 nM take Not satisfied.

CN(CC(F)(F)F)[C@H]1CC[C@@](CC#N)(n2cc(C(N)=O)c(NC(=O)C3CC3)n2)CC1 [Example 130]; Not satisfied
N#CCC1(n2cc(C(N)=O)c(NC(=O)C3CC3)n2)CCN(Cc2ccc(Br)cc2)CC1 [Example 52]; Not satisfied
CC(C)OC1(C(F)(F)F)CN([C@H]2CC[C@](CC#N)(n3cc(C(N)=O)c(NC(=O)C4CC4)n3)CC2)C1 [Example 136]; Not satisfied
N#CCC1(n2cc(C(N)=O)c(NC(=O)C3CC3)n2)CCN(Cc2ccc(-c3ccccc3)nc2F)CC1F (stereo not shown) [Example 201]; Satisfied
N#CC[C@]1(n2cc(C(N)=O)c(NC(=O)C3CC3)n2)CC[C@@H](NCc2ccc(-c3ccccc3)cc2)CC1 [Example 128]; Not satisfied
N#CC[C@]1(n2cc(C(N)=O)c(NC(=O)C3CC3)n2)CC[C@H](N2CC3(CCC3)C2)CC1 [Example 107]; Not satisfied

----------
Molecular target: isolated recombinant JAK1 kinase domain (Homo sapiens (Human))
Sequence (P23458 875-1153): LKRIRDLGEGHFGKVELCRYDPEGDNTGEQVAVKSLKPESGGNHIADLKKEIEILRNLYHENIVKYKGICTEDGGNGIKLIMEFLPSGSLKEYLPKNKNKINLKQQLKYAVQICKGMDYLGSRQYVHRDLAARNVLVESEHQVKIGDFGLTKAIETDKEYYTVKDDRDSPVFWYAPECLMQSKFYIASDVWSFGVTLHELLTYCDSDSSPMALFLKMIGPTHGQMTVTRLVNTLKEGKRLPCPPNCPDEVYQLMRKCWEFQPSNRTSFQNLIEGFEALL
Test: JAK1 enzyme assay (Caliper LabChip, Ki)
Format: biochemical
ENDPOINT_NAME: Ki (nM)

N#CC[C@]1(n2cc(C(N)=O)c(NC(=O)C3CC3)n2)CC[C@@H](NCc2ccccc2)CC1; 5.3
N#CC[C@]1(n2cc(C(N)=O)c(NC(=O)C3CC3)n2)CC[C@H](NCc2ccc(Cl)cc2)CC1; 437
N#CC[C@]1(n2cc(C(N)=O)c(NC(=O)C3CC3)n2)CC[C@H](NCCC(F)(F)F)CC1; 7.3
N#CC[C@]1(n2cc(C(N)=O)c(NC(=O)C3CC3)n2)CC[C@@H](N2CC3(CCC3)C2)CC1; 466
N#CC[C@]1(n2cc(C(N)=O)c(NC(=O)C3CC3)n2)CC[C@@H](NCc2cccc(C#N)c2)CC1; 32.7
N#CC[C@]1(n2cc(C(N)=O)c(NC(=O)C3CC3)n2)CC[C@@H](NC2CC(F)(F)C2)CC1; 8.7
N#CC[C@]1(n2cc(C(N)=O)c(NC(=O)C3CC3)n2)CC[C@H](NCc2ccccc2Cl)CC1; 3.7
N#CC[C@]1(n2cc(C(N)=O)c(NC(=O)C3CC3)n2)CC[C@H](NCc2ccc(C#N)cc2)CC1; 14.6
N#CC[C@]1(n2cc(C(N)=O)c(NC(=O)C3CC3)n2)CC[C@H](NC2CCOCC2)CC1; 38
CC1(C)CN([C@H]2CC[C@@](CC#N)(n3cc(C(N)=O)c(NC(=O)C4CC4)n3)CC2)C1; 23.3
CN[C@H]1CC[C@](CC#N)(n2cc(C(N)=O)c(NC(=O)C3CC3)n2)CC1; 92.2

----------
Molecular target: isolated recombinant JAK2 kinase domain (Homo sapiens (Human), UniProt O60674)
Sequence (O60674 849-1124): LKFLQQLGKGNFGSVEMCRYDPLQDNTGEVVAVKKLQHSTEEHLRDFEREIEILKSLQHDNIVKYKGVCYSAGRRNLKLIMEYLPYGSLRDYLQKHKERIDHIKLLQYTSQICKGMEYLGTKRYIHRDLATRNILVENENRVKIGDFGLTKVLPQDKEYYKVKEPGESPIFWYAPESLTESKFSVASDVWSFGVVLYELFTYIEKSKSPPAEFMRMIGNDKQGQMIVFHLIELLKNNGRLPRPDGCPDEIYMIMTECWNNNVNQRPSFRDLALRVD
Experiment: JAK2 enzyme assay (Caliper LabChip, Ki)
Entries whose Ki is below 3 nM take True; entries at or above 3 nM take False.

N#CCC1(n2cc(C(N)=O)c(NC(=O)C3CC3)n2)CCN(Cc2ccc3cc[nH]c3c2)CC1 [Example 72]; False
CS(=O)(=O)Nc1cc(F)cc(CN2CCC(CC#N)(n3cc(C(N)=O)c(NC(=O)C4CC4)n3)CC2)c1 [Example 80]; False
N#CCC1(n2cc(C(N)=O)c(NC(=O)C3CC3)n2)CCN(Cc2ccc(N3CCCC3)cc2)CC1 [Example 84]; False
COC(=O)Nc1nn(C2(CC#N)CCN(CC3CCC(c4ccccc4)CC3)CC2F)cc1C(N)=O (stereo not shown) [Example 235]; True
CCn1ccc(-c2ccc(CN3CCC(CC#N)(n4cc(C(N)=O)c(NC(=O)C5CC5)n4)C(F)C3)cc2)n1 (stereo not shown) [Example 217]; True
COC(=O)Nc1nn(C2(CC#N)CCN(Cc3cc(O)c(-c4ccco4)cc3F)CC2F)cc1C(N)=O (stereo not shown) [Example 238]; True
COC(=O)Nc1nn(C2(CC#N)CCN(Cc3cc(C(F)F)ccc3F)CC2F)cc1C(N)=O (stereo not shown) [Example 283]; True

Values compiled from patent US11731943B2.
